Parameter: pKd. Scope: all listed entries.
assay system: T1, ALK2-FC (UniProt Q04771 21-123, limits assumed)
T1 construct: Only the embodiments speak of 'human ALK2'; not shown: Fc part
T1 sequence (looked up): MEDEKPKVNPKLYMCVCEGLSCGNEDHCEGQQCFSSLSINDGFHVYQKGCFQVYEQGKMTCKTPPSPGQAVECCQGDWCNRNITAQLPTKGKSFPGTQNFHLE
experiment description: BLI, ForteBio Octet RED384; monovalent fAB-FH against ALK2-FC
In simple prose, pKd is minus the logarithm base ten of a concentration in moles per litre.

Completed entries (count: 6):
{"columns": ["binder", "pKd"],
 "data": [
  ["Antibody 3, monovalent fAB in fAB-FH format (Fab, V domains shown, also called Anti-ALK2 fAB) VH: EVQLVESGGGLVKPGGSLRLSCAASGFTFNSSAMSWVRQAPGKGLEWVGRIKSKRDGYTTDYAAPVKGRFTISRDDSKNTLYLQMNSLKTEDTAVYYCARDYGGLKFDYWGQGTLVTVSS VL: DIELTQPPSVSVSPGQTASITCSGDNIGTKYAYWYQQKPGQAPVLVIYGDSDRPSGIPERFSGSNSGNTATLTISGTQAEDEADYYCYSADAQQMKAVFGGGTKLTVLG", 8.36],
  ["Antibody 9, monovalent fAB in fAB-FH format (Fab, V domains shown, also called Anti-ALK2 fAB) VH: QVQLVQSGAEVKKPGSSVKVSCKASGGTFSTHAISWVRQAPGQGLEWMGLIQPRFGTANYAQKFQGRVTITADESTSTAYMELSSLRSEDTAVYYCARDYYGGMAYWGQGTLVTVSS VL: DIVLTQPPSVSGAPGQRVTISCSGSSSNIGQNYVSWYQQLPGTAPKLLIYDNSKRPSGVPDRFSGSKSGTSASLAITGLQAEDEADYYCSSWDLLSKSRVFGGGTKLTVLG", 7.85],
  ["Antibody 2, monovalent fAB in fAB-FH format (Fab, V domains shown, also called Anti-ALK2 fAB) VH: EVQLVESGGGLVKPGGSLRLSCAASGFTFSSHAMSWVRQAPGKGLEWVGRIKSKADSGTTDYAAPVKGRFTISRDDSKNTLYLQMNSLKTEDTAVYYCARDYGVAFAYWGQGTLVTVSS VL: DIELTQPPSVSVSPGQTASITCSGDSIPSFFASWYQQKPGQAPVLVIYRDSNRPSGIPERFSGSNSGNTATLTISGTQAEDEADYYCYVTAPWKSIWVFGGGTKLTVLG", 9.15],
  ["Antibody 4, monovalent fAB in fAB-FH format (Fab, V domains shown, also called Anti-ALK2 fAB) VH: QVQLVQSGAEVKKPGSSVKVSCKASGGTFSSYAIHWVRQAPGQGLEWMGRIIPDFGTANYAQKFQGRVTITADESTSTAYMELSSLRSEDTAVYYCARGPTQAIHYFAYWGQGTLVTVSS VL: DIELTQPPSVSVSPGQTASITCSGDNLRKYSAHWYQQKPGQAPVLVIYYDNKRPSGIPERFSGSNSGNTATLTISGTQAEDEADYYCQVYASVHRMVFGGGTKLTVLG", 8.74],
  ["Antibody 1, monovalent fAB in fAB-FH format (Fab, V domains shown, also called Anti-ALK2 fAB) VH: QVQLVQSGAEVKKPGSSVKVSCKASGGTFSSYGVSWVRQAPGQGLEWMGGIIPHFGIANYAQKFQGRVTITADESTSTAYMELSSLRSEDTAVYYCAREIGSLDIWGQGTLVTVSS VL: DIVLTQPPSVSGAPGQRVTISCSGSSSNIGSNYVSWYQQLPGTAPKVLIYKNNHRPSGVPDRFSGSKSGTSASLAITGLQAEDEADYYCASWDHSDRFYVFGGGTKLTVLG", 8.40],
  ["Antibody 8, monovalent fAB in fAB-FH format (Fab, V domains shown, also called Anti-ALK2 fAB) VH: EVQLLESGGGLVQPGGSLRLSCAASGFTFSDYAMHWVRQAPGKGLEWVSSIFYSGSNTYYADSVKGRFTISRDNSKNTLYLQMNSLRAEDTAVYYCARPKSYASGPFAYWGQGTLVTVSS VL: DIELTQPPSVSVSPGQTASITCSGDALRYYIAHWYQQKPGQAPVLVIYYNNNRPSGIPERFSGSNSGNTATLTISGTQAEDEADYYCQSYGPGSVVFGGGTKLTVLG", 8.20]
]}

Field: next binder
Kindly indicate its recorded pKd. Item: Antibody 6, monovalent fAB in fAB-FH format (Fab, V domains shown, also called Anti-ALK2 fAB) VH: EVQLLESGGGLVQPGGSLRLSCAASGFTFGRFVMHWVRQAPGKGLEWVSVIGYSGSSTYYADSVKGRFTISRDNSKNTLYLQMNSLRAEDTAVYYCAREPGYYYPSGYYRGPGYWMDVWGQGTLVTVSS VL: DIQMTQSPSSLSASVGDRVTITCRASQGISGNWLTWYQQKPGKAPKLLIYDASNLQSGVPSRFSGSGSGTDFTLTISSLQPEDFATYYCHQSYRGPMTFGQGTKVEIKR
8.54
